TARGET: Recombinant human Bcl-2 protein (Homo sapiens (Human), UniProt P10415)
Sequence (P10415 whole entry): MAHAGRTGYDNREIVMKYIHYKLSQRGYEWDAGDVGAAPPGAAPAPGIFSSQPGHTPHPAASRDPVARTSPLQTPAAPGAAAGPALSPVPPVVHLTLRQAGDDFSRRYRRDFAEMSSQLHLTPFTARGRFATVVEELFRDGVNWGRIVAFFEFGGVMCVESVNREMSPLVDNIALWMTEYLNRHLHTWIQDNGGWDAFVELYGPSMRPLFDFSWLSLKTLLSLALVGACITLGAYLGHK
PROCEDURE_DETAILS: Bcl-2 TR-FRET Assay
Format: binding
PROTOCOL_CONDITIONS: Bcl-2 wild type, TR-FRET; read-out: Biochemical assay (IC50, nM) Bcl-2 WT
READOUT_KIND: log10 of IC50 (log10 of the value in nM)
Please be aware that the numbers have been log10-transformed from IC50 in nM.

Illustrative cases are given below, each with its answer.
[[record]]
compound = "COc1cc(CN2CCN(C3CC4(CCN(c5ccc(C(=O)NS(=O)(=O)c6ccc(NC[C@H]7CC[C@](C)(O)CC7)c([N+](=O)[O-])c6)c(Oc6cnc7[nH]cc(F)c7c6)c5)CC4)C3)[C@H](c3ccccc3C(C)C)C2)ccc1F"
readout_kind = "log10 of IC50"
experimental_result = -0.64

[[record]]
compound = "CC(C)c1ccccc1C1CN(Cc2cnn(C)c2)CCN1C1CC2(CCN(c3ccc(C(=O)NS(=O)(=O)c4ccc(NC[C@H]5CC[C@](C)(O)CC5)c([N+](=O)[O-])c4)c(Oc4cnc5[nH]ccc5c4)c3)CC2)C1 (stereo partly shown) [Example 22]"
readout_kind = "log10 of IC50"
experimental_result = -1.89

[[record]]
compound = "COc1cc(CN2CCN(C3CC4(CCN(c5ccc(C(=O)NS(=O)(=O)c6ccc(NC[C@H]7CC[C@](C)(O)CC7)c([N+](=O)[O-])c6)c(Oc6cnc7[nH]ccc7c6)c5)CC4)C3)C(c3ccccc3C(C)C)C2)cc(C(F)(F)F)c1 (stereo partly shown)"
readout_kind = "log10 of IC50"
experimental_result = 0.30

[[record]]
compound = "COc1cc(CN2CCN(C3CC4(CCN(c5ccc(C(=O)NS(=O)(=O)c6ccc(NC[C@H]7CC[C@](C)(O)CC7)c([N+](=O)[O-])c6)c(Oc6cnc7[nH]ccc7c6)c5)CC4)C3)[C@H](c3ccccc3C(C)C)C2)ccc1CC(C)C"
readout_kind = "log10 of IC50"
experimental_result = 0.51

[[record]]
compound = "C#Cc1ccc(CN2CCN(C3CC4(CCN(c5ccc(C(=O)NS(=O)(=O)c6ccc(NC[C@H]7CC[C@](C)(O)CC7)c([N+](=O)[O-])c6)c(Oc6cnc7[nH]ccc7c6)c5)CC4)C3)C(c3ccccc3C(C)C)C2)cc1 (stereo partly shown)"
readout_kind = "log10 of IC50"
experimental_result = -0.25


For every listed record, write down its log10 of IC50.
1. CC(C)c1ccccc1C1CN(Cc2cccc3c2CCCC3)CCN1C1CC2(CCN(c3ccc(C(=O)NS(=O)(=O)c4ccc(NC[C@H]5CC[C@](C)(O)CC5)c([N+](=O)[O-])c4)c(Oc4cnc5[nH]ccc5c4)c3)CC2)C1 (stereo partly shown)
2. COc1cc(CN2CCN(C3CC4(C3)CN(c3ccc(C(=O)NS(=O)(=O)c5ccc(NC[C@H]6CC[C@](C)(O)CC6)c([N+](=O)[O-])c5)c(Oc5cnc6[nH]cc(F)c6c5)c3)C4)[C@H](c3ccccc3C(C)C)C2)cc2ccoc12
3. COc1cc(CN2CCN(C3CC4(CCN(c5ccc(C(=O)NS(=O)(=O)c6ccc(NC[C@H]7CC[C@](C)(O)CC7)c([N+](=O)[O-])c6)c(Oc6cnc7[nH]ccc7c6)c5)CC4)C3)[C@H](c3ccccc3C(C)C)C2)ccc1C
4. [2H]C([2H])([2H])Oc1cc(CN2CCN(C3CC4(C3)CN(c3ccc(C(=O)NS(=O)(=O)c5ccc(NC[C@H]6CC[C@](C)(O)CC6)c([N+](=O)[O-])c5)c(Oc5cnc6[nH]cc(F)c6c5)c3)C4)[C@H](c3ccccc3C(C)C)C2)cc2ccoc12
5. CC(C)c1ccccc1[C@@H]1CN(Cc2ccc3c(c2)OCC3)CCN1C1CC2(CCN(c3ccc(C(=O)NS(=O)(=O)c4ccc(NC[C@H]5CC[C@](C)(O)CC5)c([N+](=O)[O-])c4)c(Oc4cnc5[nH]ccc5c4)c3)CC2)C1
6. COc1cc(CN2CCN(C3CC4(CCN(c5ccc(C(=O)NS(=O)(=O)c6ccc(NC[C@H]7CC[C@](C)(O)CC7)c([N+](=O)[O-])c6)c(Oc6cnc7[nH]cc(F)c7c6)c5)CC4)C3)[C@H](c3ccccc3C(C)C)C2)ccc1C(F)F
7. COc1ccc(CN2CCN(C3CC4(CCN(c5ccc(C(=O)NS(=O)(=O)c6ccc(NC[C@H]7CC[C@](C)(O)CC7)c([N+](=O)[O-])c6)c(Oc6cnc7[nH]ccc7c6)c5)CC4)C3)C(c3ccccc3C)C2)cc1 (stereo partly shown)
8. CC(C)c1ccccc1C1CN(Cc2ccc3c(c2)OCO3)CCN1C1CC2(CCN(c3ccc(C(=O)NS(=O)(=O)c4ccc(NC[C@H]5CC[C@](C)(O)CC5)c([N+](=O)[O-])c4)c(Oc4cnc5[nH]ccc5c4)c3)CC2)C1 (stereo partly shown)

1: 0.58; 2: -0.51; 3: -0.47; 4: -0.60; 5: -0.89; 6: -0.06; 7: -1.31; 8: -0.72

For every listed record, write down its log10 of IC50.
1. COc1cnc(CN2CCN(C3CC4(CCN(c5ccc(C(=O)NS(=O)(=O)c6ccc(NC[C@H]7CC[C@](C)(O)CC7)c([N+](=O)[O-])c6)c(Oc6cnc7[nH]ccc7c6)c5)CC4)C3)C(c3ccccc3C(C)C)C2)cn1 (stereo partly shown)
2. CC(C)c1ccccc1C1CN(Cc2ccc(F)c(F)c2)CCN1C1CC2(CCN(c3ccc(C(=O)NS(=O)(=O)c4ccc(NC[C@H]5CC[C@](C)(O)CC5)c([N+](=O)[O-])c4)c(Oc4cnc5[nH]ccc5c4)c3)CC2)C1 (stereo partly shown)
3. COc1cc(CN2CCN(C3CC4(CCN(c5ccc(C(=O)NS(=O)(=O)c6ccc(NC[C@H]7CC[C@](C)(O)CC7)c([N+](=O)[O-])c6)c(Oc6cnc7[nH]cc(F)c7c6)c5)CC4)C3)[C@H](c3ccccc3C(C)C)C2)ccc1C1CC1

-1.30
-0.62
-0.07

Hey, just so you know, these numbers are from patent US20240376097A1.
